Each entry below carries its reported max response.
system: HEK293; assay: Cytotoxic Profiling of Annotated Libraries Using Quantitative High-Throughput Screening (AID 1296008); settings: Five cell lines viability, CellTiter-Glo ATP luminescence, 48-72 h; stronger effect = lower value; note: % is set by controls: 0 for no effect and ±100 for the full control effect; nearly all actives have a fitted effect of over 60% in size
Records with an inconclusive call do not appear. Where a SMILES comes first, the peptide text is derived from it. [ ]: non-standard residue; d: D form. The star is where a group is joined. Dolaproine = CO[C@@H]([C@@H]1CCCN1)[C@@H](C)C(=O)O; Dil = CC[C@H](C)[C@H](NC)[C@@H](CC(=O)O)OC; Doe = c1ccc(C[C@H](N*)c2nccs2)cc1; Aib = CC(C)(N)C(=O)O
Respond numerically; units are % and should not be typed.

Cc1ncc(OC[C@@]2(c3cccc(F)c3)C[C@H]2C(=O)Nc2ccc(F)cn2)c(C)n1 :: 4.45

Look at this compound and give its reported max response. N#CC(O[C@@H]1O[C@H](CO)[C@@H](O)[C@H](O)[C@H]1O)c1ccccc1 (stereo partly drawn)
-8.76

Also check "Cc1cccc(NC(=O)N[C@H]2CN(C)c3ccccc3C(c3ccccc3)=N2)c1"
-2.16

Also check "C=CCN1CCC2(C)c3cc(O)ccc3C[C@H]1[C@H]2C"
-5.37

Also check CC1CCCC(=O)CCC/C=C/c2cc(O)cc(O)c2C(=O)O1 (stereo not drawn)
-3.13

Also check "CC(=O)O[C@H]1CC[C@@]2(CI)C(=CC[C@@H]3[C@@H]2CC[C@]2(C)C(=O)CC[C@@H]32)C1"
-18.2

Also check CC[C@H](C)[C@@H]([C@@H](CC(=O)N1CCC[C@H]1[C@H](OC)[C@@H](C)C(=O)N[C@@H](Cc1ccccc1)c1nccs1)OC)N(C)C(=O)[C@@H](NC(=O)C(C)(C)N)C(C)C (H-[Aib]V[Dil][Dolaproine]-Doe)
-94.9

Also check "C=CC(C)(C)c1[nH]c2c(CC=C(C)C)cc(CC=C(C)C)cc2c1C[C@@H]1NC(=O)[C@H](C)NC1=O"
-8.14

###

test system: C33A; assay: Primary qHTS to identify gynecologic anti-cancer compounds using libraries of approved drugs and bioactive compounds (AID 1345084); details: Gynecologic cancer cell panel viability, ATPlite luminescence, 48 h; series mostly up to 57.5 µM; note: nearly all actives have a fitted effect of over 55% in size
Inconclusive results are not listed. Active and inactive are the calls of the source. Calls follow the shape of the dose curve; as a rule, active = well fitted cell-killing curve with a large enough effect; inconclusive = small, poorly fitted or top-dose-only effect, or effect the other way; inactive = flat fitted curve, though single readings scatter.
Your response should consist of one outcome taken from TRUE (active), FALSE (inactive)

Record excerpt, results attached:
CC(O)(c1ccccc1)C(Cc1ccc(Cl)cc1)n1cncn1 (stereo not given) :: FALSE
C#CCO[C@H]1CN2CCC1CC2 :: FALSE
CC1=CC2/C=C(\C)CCCC(O)/C=C/C(=O)OC23C(=O)NC(CC(C)C)C3C1C (stereo not given) :: FALSE
Cc1sc2c(c1C)C(c1ccc(Cl)cc1)=NC(CC(=O)OC(C)(C)C)c1nnc(C)n1-2 (stereo not given) :: FALSE
C[C@H]1C/C=C/[C@H]2[C@@H]3O[C@]3(C)[C@@H](C)[C@H]3[C@H](Cc4ccccc4)NC(=O)[C@]32OC(=O)O/C=C/[C@@](C)(O)C1=O :: FALSE

In this assay, the call recorded for "C[C@@H]1CN(Cc2ccc(F)cc2)CCN1C(=O)COc1ccc(Cl)cc1NC(N)=O" was what?
TRUE

Also check "C=C(CO)C(=O)O[C@H]1CC(=C)[C@@H]2C[C@H](O)C(=C)[C@@H]2[C@H]2OC(=O)C(=C)[C@@H]21"
FALSE

Also check "OCc1nnc2n1-c1ccc(Cl)cc1C(c1ccccc1Cl)=NC2"
FALSE

Also check "Cc1c(N[C@@H](c2nnc(-c3ccc(C#N)cc3)o2)[C@H](C)O)ccc(C#N)c1Cl"
FALSE

Also check COc1cc2c(cc1O)C1(C)CCC(O)C(C)(C)C1CC2=O (stereo not given)
FALSE
